# experimental system: CDK2/cyclin A (Homo sapiens, UniProt P24941)
# assay summary: radiometric protein kinase assay
# experimental setup: 15 μmol/L ATP; read-out: IC50 CDK2/cyclinA
pIC50: −log10 of the molar value.
measured metric: pIC50

Below, each entry is followed by its recorded pIC50 result.
What value of pIC50 has been recorded for this entry: CN1Cc2ccc3c(-c4ccccc4)c[nH]c3c2C1=O [12d]
< 5.00

What value of pIC50 has been recorded for this entry: O=C1NCc2c(Br)cc3c(-c4ccccc4)c[nH]c3c21 [12a]
< 5.00

What value of pIC50 has been recorded for this entry: Cc1[nH]c2c3c(c(Br)cc2c1-c1ccccc1)CNC3=O [12b]
< 5.00

What value of pIC50 has been recorded for this entry: O=C1NCc2c(-c3cccc(F)c3)cc3c(-c4ccccc4)c[nH]c3c21 [17c]
< 5.00

What value of pIC50 has been recorded for this entry: O=C1NCc2ccc3c(-c4cccc([N+](=O)[O-])c4)c[nH]c3c21
< 5.00

Here is the next item to consider.
What value of pIC50 has been recorded for this entry: O=C1NCc2ccc3c(-c4cccc(O)c4)c[nH]c3c21
< 5.00
